Numbers sourced from patent US6608082B1.

measurementTarget: MCR-1 (Homo sapiens, UniProt Q01726)
Construct: expressed in transfected cells; host or cells: HEK 293
Sequence (Q01726 whole entry): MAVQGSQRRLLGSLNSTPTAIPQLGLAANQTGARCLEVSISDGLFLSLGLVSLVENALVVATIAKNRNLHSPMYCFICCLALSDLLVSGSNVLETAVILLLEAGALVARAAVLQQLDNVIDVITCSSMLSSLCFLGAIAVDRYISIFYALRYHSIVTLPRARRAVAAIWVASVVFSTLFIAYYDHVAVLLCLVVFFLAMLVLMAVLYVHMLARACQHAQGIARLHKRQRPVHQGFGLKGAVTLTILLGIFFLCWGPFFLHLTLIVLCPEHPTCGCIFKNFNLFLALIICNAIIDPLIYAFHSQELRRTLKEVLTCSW
assayProtocol: Melanocortin receptor binding assay, competition with 125I-HP 467, HEK 293 cells expressing hMCR-1
testParameters: competition with 125I-HP 467, HEK 293 cells expressing MCR-1; read-out: MC-1 IC50
readoutKind: IC50 (nM)

Some solved cases for reference:
- compound: "CCCCNc1ccc(C2C(CN)c3ccccc3CN2CCCC(CN)NCc2ccc(Cl)cc2)cc1 (stereo not shown)"
  unitAbbrev: "nM"
  IC50: 120
- compound: "CCCCNC(CN)CCCCN1Cc2ccccc2C(CN)C1c1ccc(-c2ccccc2)cc1 (stereo not shown)"
  unitAbbrev: "nM"
  IC50: 390
- compound: "CNC(CN)CCCN1Cc2ccccc2C(CN)C1c1ccc(-c2ccccc2)cc1 (stereo not shown)"
  unitAbbrev: "nM"
  IC50: 1620

[I] NCC(CCCN1Cc2ccccc2C(CNCCc2ccccc2)C1c1ccc(-c2ccccc2)cc1)NCC1CCCCC1 (stereo not shown)
[II] CCNC(CN)CCCCN1Cc2ccccc2C(CNCCc2ccccc2)C1c1ccc(-c2ccccc2)cc1 (stereo not shown)
Could you tell me which of these two has the smaller IC50 figure? First: I Second: II Give the label of your selection.
II

[P] CCNc1ccc(C2C(CN)c3ccccc3CN2CCCCC(CN)NCc2ccc(OC)cc2)cc1 (stereo not shown)
[Q] CCCCNc1ccc(C2C(CNCCc3ccccc3)c3ccccc3CN2CCCCC(CN)NCc2ccc(Cl)cc2)cc1 (stereo not shown)
Which value of IC50 is numerically greater: that of P or that of Q ? Give the label of your selection.
Q
(Q: 180 nM, P: 120 nM)

* * *

measurementTarget: MCR-1 (Homo sapiens, UniProt Q01726)
Construct: expressed in transfected cells; host or cells: HEK 293
assayProtocol: Melanocortin receptor binding assay, competition with 125I-HP 467, HEK 293 cells expressing hMCR-1
testParameters: TRG 2406 and TRG 2407 libraries; inhibition of binding of 125I-HP 467; read-out: MC-1 IC50
pIC50: −log10 of the molar value.
readoutKind: pIC50

Some solved cases for reference:
- molecule: "CCNc1ccc(C2C(CN(C)Cc3ccccc3)c3ccccc3CN2CCCCC(CN)NC)cc1 (stereo not drawn)"
  readoutKind: "pIC50"
  measurement: 5.67
- molecule: "COc1ccc(Oc2cccc(C3C(CNCc4ccccc4O)c4ccccc4CN3CCN)c2)cc1 (stereo not drawn)"
  readoutKind: "pIC50"
  measurement: 5.21
- molecule: "CNC(CN)CCCCN1Cc2ccccc2C(CN2CCOCC2)C1c1ccc(Cl)cc1Cl (stereo not drawn)"
  readoutKind: "pIC50"
  measurement: 5.16
- molecule: "CCNc1ccc(C2C(CNc3ccc(OC)cc3)c3ccccc3CN2CCCCC(CN)NC)cc1 (stereo not drawn)"
  readoutKind: "pIC50"
  measurement: 5.63
- molecule: "CNC(CN)CCCCN1Cc2ccccc2C(CN(C)c2ccccc2)C1c1ccc(Cl)cc1Cl (stereo not drawn)"
  readoutKind: "pIC50"
  measurement: 5.24

[1] CNC(CN)CCCCN1Cc2ccccc2C(CNCc2ccccc2C(F)(F)F)C1c1ccc(Cl)cc1Cl (stereo not drawn)
[2] CNC(CN)CCCCN1Cc2ccccc2C(CNC2CCCC2)C1c1ccc(Cl)cc1Cl (stereo not drawn)
[3] CNC(CN)CCCCN1Cc2ccccc2C(CN2CCCCC2)C1c1ccc(Cl)cc1Cl (stereo not drawn)
[4] CCNc1ccc(C2C(CNc3ccccc3OC)c3ccccc3CN2CCCCC(CN)NC)cc1 (stereo not drawn)
Order field: pIC50 | Direction: descending (largest first) Record the ranking as a list of labels in the requested order.
2, 4, 3, 1
